Experiment: mn = molality of the nth substance listed, in mol/kg
Conditions: 288.15 K; 101 kPa; Liquid; Vibrating tube method; m2 = 0
quantity-measured: mass density (kg/m3)
Express the result in kg/m3 but write the number alone.

Consider the reported mass density for these molecules:
CO [methanol] + O=S(=O)([O-])C(F)(F)F.[Na+] ... 795.854
CO [methanol] + [Ba+2].[O-][Cl+3]([O-])([O-])[O-].[O-][Cl+3]([O-])([O-])[O-] ... 795.877
CO [methanol] + O=S(=O)([O-])C(F)(F)F.O=S(=O)([O-])C(F)(F)F.[Be+2] ... 795.874
CO [methanol] + [Ca+2].[O-][Cl+3]([O-])([O-])[O-].[O-][Cl+3]([O-])([O-])[O-] ... 795.862

Field mass density (entry CO [methanol] + [Mg+2].[O-][Cl+3]([O-])([O-])[O-].[O-][Cl+3]([O-])([O-])[O-] ) reads 795.864

Field mass density (entry CO [methanol] + [O-][Cl+3]([O-])([O-])[O-].[O-][Cl+3]([O-])([O-])[O-].[Sr+2] ) reads 795.856

---

Overview of reported mass density across a group of compounds:
Test: mn = molality of the nth substance listed, in mol/kg
Settings: 323.15 K; 101 kPa; Liquid; Vibrating tube method; m2 = 0
± gives the expanded uncertainty stated by the source.
Express the reported value numerically, then name its unit.

Consider the reported mass density for these compounds:
C[S+](C)[O-] [dimethyl sulfoxide] + [Ca+2].[O-][Cl+3]([O-])([O-])[O-].[O-][Cl+3]([O-])([O-])[O-] ... 1070.08 ± 0.23 kg/m3
C[S+](C)[O-] [dimethyl sulfoxide] + [O-][Cl+3]([O-])([O-])[O-].[O-][Cl+3]([O-])([O-])[O-].[Sr+2] ... 1070.08 ± 0.27 kg/m3

Switching to the query record.
Field mass density (entry C[S+](C)[O-] [dimethyl sulfoxide] + O=S(=O)([O-])C(F)(F)F.[Na+] ) reads 1090.07 ± 0.44 kg/m3

---

Experiment: mn = molality of the nth substance listed, in mol/kg
Settings: 283.15 K; 101 kPa; Liquid; Vibrating tube method; m2 = 0
quantity-measured: mass density (kg/m3)
Express the result in kg/m3 but write the number alone.

Consider the reported mass density for these molecules:
CO [methanol] + [Ca+2].[O-][Cl+3]([O-])([O-])[O-].[O-][Cl+3]([O-])([O-])[O-] ... 800.54
CO [methanol] + O=S(=O)([O-])C(F)(F)F.[Na+] ... 800.544
CO [methanol] + [O-][Cl+3]([O-])([O-])[O-].[O-][Cl+3]([O-])([O-])[O-].[Sr+2] ... 800.547
CO [methanol] + [Ba+2].[O-][Cl+3]([O-])([O-])[O-].[O-][Cl+3]([O-])([O-])[O-] ... 800.555
CO [methanol] + [Mg+2].[O-][Cl+3]([O-])([O-])[O-].[O-][Cl+3]([O-])([O-])[O-] ... 800.542

Switching to the query record.
Field mass density (entry CO [methanol] + O=S(=O)([O-])C(F)(F)F.O=S(=O)([O-])C(F)(F)F.[Be+2] ) reads 800.552
